target: EPHA2 (human); assay: radiometric filter-binding kinase assay; conditions: compound 100.0 µM; ATP 50 µM
TEST_READOUT: inhibition (%)

Nc1nc2cnc(-c3ccccc3)cn2n1 :: 28

I. COc1ccc(-c2cc3c(=O)[nH]cnc3s2)cc1OC
II. CC1CN(c2nc3ccccn3c(=O)c2N)CC(C)O1 (stereo not drawn)
Enquiry: Of I and II , which carries the smaller reported inhibition figure? Mark your answer with the label of the selected entry.
Return: II

---

molecular target: EPHB2 (human); test: radiometric filter-binding kinase assay; details: compound 100.0 µM; ATP 20 µM
TEST_READOUT: inhibition (%)

// worked examples, inhibition included
CC(=O)Nc1nc2cnc(-c3c(C)cccc3C)cn2n1 :: 0
CC(C)(C)Nc1c(COCc2ccccc2)nc2[nH]cnn12 :: 1
COc1ccc(NC(=S)Nc2cnc3[nH]cnn3c2=O)cn1 :: 22
O=C(Nc1cnc2[nH]ccn2c1=O)c1ccccc1 :: 14
O=c1cc(-c2ccccc2F)nc2[nH]ccn12 :: 0

1. COc1ccc(-c2cc3c(=O)[nH]cnc3s2)cc1OC
2. O=c1c(NC(=S)NCc2ccccc2)cnc2[nH]ccn12
Enquiry: Compare 1 and 2 by numeric inhibition and name the larger one. Mark your answer with the label of the selected entry.
Return: 1
(1: 17%, 2: 3%)

I. CC(=O)Nc1nc2cnc(-c3ccccc3)cn2n1
II. O=C(c1cccc(-c2cc3c(=O)[nH]cnc3s2)c1)N1CCOCC1
III. CC(C)(C)Nc1c(C2CC2)nc2[nH]cnn12
Enquiry: Hello, I need these entries ordered by inhibition, highest reading first. Thanks! Put the labels in the requested order and write them down.
Return: II, I, III
(II: 27%, I: 4%, III: 0%)

1. Nc1cnc2c(-c3c(F)cccc3F)cccn2c1=O
2. CC1CN(c2nc3ccccn3c(=O)c2N)CC(C)O1 (stereo not given)
3. Cc1cccc(C)c1-c1cn2nc(N)nc2cn1
4. O=C(Nc1cnc2[nH]cnn2c1=O)c1ccccc1
Enquiry: Ascending by inhibition, please. Put the labels in the requested order and write them down.
Return: 3, 4, 2, 1

---

biological target: SYK (human) (UniProt P43405); assay: radiometric filter-binding kinase assay; conditions: compound 100.0 µM; ATP 20 µM
TEST_READOUT: inhibition (%)

// worked examples, inhibition included
CC(=O)Nc1nc2cnc(-c3ccccc3)cn2n1 :: 31
CC(C)(C)Nc1c(COCc2ccccc2)nc2[nH]cnn12 :: 12
Nc1nc2cnc(-c3ccccc3)cn2n1 :: 84

1. O=C(c1cccc(-c2cc3c(=O)[nH]cnc3s2)c1)N1CCOCC1
2. CC(C)(C)Nc1c(C2CC2)nc2[nH]cnn12
3. Cc1cccc(C)c1-c1cn2nc(N)nc2cn1
4. CC1CN(c2nc3ccccn3c(=O)c2N)CC(C)O1 (stereo not given)
Enquiry: Hello, I need these entries ordered by inhibition, highest reading first. Thanks! Put the labels in the requested order and write them down.
Return: 3, 4, 2, 1
(3: 26%, 4: 13%, 2: 7%, 1: 0%)

P. COc1ccc(-c2cc3c(=O)[nH]cnc3s2)cc1OC
Q. CC(=O)Nc1nc2cnc(-c3c(C)cccc3C)cn2n1
Enquiry: Compare P and Q by numeric inhibition and name the larger one. Mark your answer with the label of the selected entry.
Return: Q

---

target: UniProt:P17612; assay: radiometric filter-binding kinase assay; conditions: compound 100.0 µM; ATP 20 µM
TEST_READOUT: inhibition (%)

// worked examples, inhibition included
O=c1c(NC(=S)NCc2ccccc2)cnc2[nH]ccn12 :: 0
CC(=O)Nc1nc2cnc(-c3ccccc3)cn2n1 :: 0

a. Nc1nc2cnc(-c3ccccc3)cn2n1
b. O=C(Nc1cnc2[nH]cnn2c1=O)c1ccccc1
Enquiry: Compare a and b by numeric inhibition and name the larger one. Mark your answer with the label of the selected entry.
Return: a

---

molecular target: JAK2 JH1 JH2 (human) (UniProt O60674); assay: radiometric filter-binding kinase assay; details: compound 100.0 µM; ATP 5 µM
Sequence (O60674 whole entry, looked up): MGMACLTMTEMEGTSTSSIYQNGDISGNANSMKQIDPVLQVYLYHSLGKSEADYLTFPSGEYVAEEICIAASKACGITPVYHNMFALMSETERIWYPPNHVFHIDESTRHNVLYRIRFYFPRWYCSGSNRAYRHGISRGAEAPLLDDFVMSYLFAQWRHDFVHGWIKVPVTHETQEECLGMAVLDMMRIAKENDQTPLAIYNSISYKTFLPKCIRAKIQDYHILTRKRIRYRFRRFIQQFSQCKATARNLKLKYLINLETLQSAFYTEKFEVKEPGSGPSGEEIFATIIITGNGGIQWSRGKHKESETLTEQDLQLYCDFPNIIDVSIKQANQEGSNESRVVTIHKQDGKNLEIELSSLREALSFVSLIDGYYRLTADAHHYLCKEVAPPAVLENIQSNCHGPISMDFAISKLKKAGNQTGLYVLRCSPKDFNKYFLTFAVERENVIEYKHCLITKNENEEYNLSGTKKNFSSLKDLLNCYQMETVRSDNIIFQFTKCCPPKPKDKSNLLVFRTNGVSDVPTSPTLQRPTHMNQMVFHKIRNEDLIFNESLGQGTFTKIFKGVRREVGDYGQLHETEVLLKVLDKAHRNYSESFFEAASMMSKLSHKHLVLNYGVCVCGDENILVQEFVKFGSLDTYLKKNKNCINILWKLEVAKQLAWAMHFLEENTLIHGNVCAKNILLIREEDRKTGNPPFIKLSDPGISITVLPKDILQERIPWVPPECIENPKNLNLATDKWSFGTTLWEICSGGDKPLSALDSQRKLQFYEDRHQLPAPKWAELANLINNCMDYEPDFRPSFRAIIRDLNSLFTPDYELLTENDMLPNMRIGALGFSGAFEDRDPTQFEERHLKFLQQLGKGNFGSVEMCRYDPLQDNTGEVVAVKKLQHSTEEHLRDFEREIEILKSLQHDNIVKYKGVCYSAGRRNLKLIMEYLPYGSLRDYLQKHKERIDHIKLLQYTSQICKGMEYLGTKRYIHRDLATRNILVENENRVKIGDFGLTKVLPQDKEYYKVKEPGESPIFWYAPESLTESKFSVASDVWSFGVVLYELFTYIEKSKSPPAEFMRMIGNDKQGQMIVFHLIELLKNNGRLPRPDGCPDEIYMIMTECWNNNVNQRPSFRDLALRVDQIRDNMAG
TEST_READOUT: inhibition (%)

// worked examples, inhibition included
COc1ccc(-c2cc3c(=O)[nH]cnc3s2)cc1OC :: 60
CC(C)(C)Nc1c(C2CC2)nc2[nH]cnn12 :: 3
O=C(Nc1cnc2[nH]ccn2c1=O)c1ccccc1 :: 9
COc1ccc(NC(=S)Nc2cnc3[nH]cnn3c2=O)cn1 :: 23
Nc1cnc2c(-c3c(F)cccc3F)cccn2c1=O :: 89

a. CC(C)(C)Nc1c(COCc2ccccc2)nc2[nH]cnn12
b. O=C(c1cccc(-c2cc3c(=O)[nH]cnc3s2)c1)N1CCOCC1
Enquiry: Of a and b , which carries the smaller reported inhibition figure? Mark your answer with the label of the selected entry.
Return: a

P. CC(=O)Nc1nc2cnc(-c3c(C)cccc3C)cn2n1
Q. CC(=O)Nc1nc2cnc(-c3ccccc3)cn2n1
Enquiry: Compare P and Q by numeric inhibition and name the larger one. Mark your answer with the label of the selected entry.
Return: Q

A. CC1CN(c2nc3ccccn3c(=O)c2N)CC(C)O1 (stereo not given)
B. Cc1cccc(C)c1-c1cn2nc(N)nc2cn1
Enquiry: Compare A and B by numeric inhibition and name the larger one. Mark your answer with the label of the selected entry.
Return: A

---

target: UniProt P27361; test: radiometric filter-binding kinase assay; settings: compound 100.0 µM; ATP 5 µM
Sequence (P27361 whole entry, looked up): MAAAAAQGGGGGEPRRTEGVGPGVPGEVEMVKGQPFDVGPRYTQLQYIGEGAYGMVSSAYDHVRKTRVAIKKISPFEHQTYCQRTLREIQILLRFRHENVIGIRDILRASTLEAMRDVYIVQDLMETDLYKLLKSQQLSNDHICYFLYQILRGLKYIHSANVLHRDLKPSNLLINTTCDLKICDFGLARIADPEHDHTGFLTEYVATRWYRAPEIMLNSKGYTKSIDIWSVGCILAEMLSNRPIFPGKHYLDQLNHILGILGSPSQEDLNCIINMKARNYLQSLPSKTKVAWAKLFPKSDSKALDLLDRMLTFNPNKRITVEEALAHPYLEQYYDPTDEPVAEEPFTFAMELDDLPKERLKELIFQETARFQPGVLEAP
TEST_READOUT: inhibition (%)

CC(C)(C)Nc1c(C2CC2)nc2[nH]cnn12 :: 0

P. CC(=O)Nc1nc2cnc(-c3c(C)cccc3C)cn2n1
Q. Nc1nc2cnc(-c3ccccc3)cn2n1
Enquiry: Compare P and Q by numeric inhibition and name the larger one. Mark your answer with the label of the selected entry.
Return: Q
(Q: 31%, P: 10%)

---

target: UniProtKB Q16584; assay: radiometric filter-binding kinase assay; settings: compound 100.0 µM; ATP 20 µM
Sequence (Q16584 whole entry, looked up): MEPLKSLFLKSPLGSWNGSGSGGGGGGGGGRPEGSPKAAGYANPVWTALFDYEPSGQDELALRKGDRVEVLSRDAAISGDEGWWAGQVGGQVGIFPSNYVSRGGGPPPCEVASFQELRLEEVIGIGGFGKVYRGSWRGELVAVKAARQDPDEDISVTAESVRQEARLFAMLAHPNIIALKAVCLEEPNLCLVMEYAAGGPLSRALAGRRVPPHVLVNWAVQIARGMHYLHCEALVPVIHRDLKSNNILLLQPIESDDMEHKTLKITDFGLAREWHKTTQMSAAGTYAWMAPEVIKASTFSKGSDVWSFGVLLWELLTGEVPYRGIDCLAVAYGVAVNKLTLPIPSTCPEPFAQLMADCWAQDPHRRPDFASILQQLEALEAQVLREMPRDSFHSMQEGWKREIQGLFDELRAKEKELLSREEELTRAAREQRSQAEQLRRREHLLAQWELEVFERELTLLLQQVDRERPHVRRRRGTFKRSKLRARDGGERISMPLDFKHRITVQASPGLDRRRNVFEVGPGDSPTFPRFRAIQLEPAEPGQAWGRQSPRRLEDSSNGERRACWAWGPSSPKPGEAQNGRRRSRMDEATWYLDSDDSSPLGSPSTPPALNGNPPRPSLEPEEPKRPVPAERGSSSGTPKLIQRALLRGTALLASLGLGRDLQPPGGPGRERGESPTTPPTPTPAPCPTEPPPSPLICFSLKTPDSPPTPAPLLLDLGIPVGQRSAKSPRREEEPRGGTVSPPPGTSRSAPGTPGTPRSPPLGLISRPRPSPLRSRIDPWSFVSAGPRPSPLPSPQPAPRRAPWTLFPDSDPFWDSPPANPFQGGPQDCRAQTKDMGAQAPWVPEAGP
TEST_READOUT: inhibition (%)

// worked examples, inhibition included
CC(C)(C)Nc1c(C2CC2)nc2[nH]cnn12 :: 0
CC(=O)Nc1nc2cnc(-c3ccccc3)cn2n1 :: 17

P. COc1ccc(-c2cc3c(=O)[nH]cnc3s2)cc1OC
Q. O=C(Nc1cnc2[nH]cnn2c1=O)c1ccccc1
Enquiry: Of P and Q , which carries the smaller reported inhibition figure? Mark your answer with the label of the selected entry.
Return: Q
(Q: 0%, P: 8%)

P. O=c1cc(-c2ccccc2F)nc2[nH]ccn12
Q. O=c1c(NC(=S)NCc2ccccc2)cnc2[nH]ccn12
R. Cc1cccc(C)c1-c1cn2nc(N)nc2cn1
Enquiry: Ascending by inhibition, please. Put the labels in the requested order and write them down.
Return: R, P, Q

---

molecular target: UniProt:Q14012; assay: radiometric filter-binding kinase assay; details: compound 100.0 µM; ATP 50 µM
Sequence (Q14012 whole entry, looked up): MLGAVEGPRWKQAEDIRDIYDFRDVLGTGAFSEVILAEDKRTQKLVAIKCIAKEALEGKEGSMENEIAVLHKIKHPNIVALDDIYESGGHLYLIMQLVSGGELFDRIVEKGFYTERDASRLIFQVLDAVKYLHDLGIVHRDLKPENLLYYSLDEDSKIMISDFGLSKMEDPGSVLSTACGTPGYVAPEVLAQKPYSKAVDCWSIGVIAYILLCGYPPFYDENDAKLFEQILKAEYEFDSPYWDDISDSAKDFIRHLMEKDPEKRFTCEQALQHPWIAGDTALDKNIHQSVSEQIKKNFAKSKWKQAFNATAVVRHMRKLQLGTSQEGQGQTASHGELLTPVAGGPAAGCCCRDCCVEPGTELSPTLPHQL
TEST_READOUT: inhibition (%)

CC1CN(c2nc3ccccn3c(=O)c2N)CC(C)O1 (configuration not stated) :: 35

I. COc1ccc(-c2cc3c(=O)[nH]cnc3s2)cc1OC
II. COc1ccc(NC(=S)Nc2cnc3[nH]cnn3c2=O)cn1
Enquiry: Of I and II , which carries the smaller reported inhibition figure? Mark your answer with the label of the selected entry.
Return: II
(II: 0%, I: 66%)

A. O=c1cc(-c2ccccc2F)nc2[nH]ccn12
B. CC(C)(C)Nc1c(COCc2ccccc2)nc2[nH]cnn12
Enquiry: Of A and B , which carries the smaller reported inhibition figure? Mark your answer with the label of the selected entry.
Return: A

I. Nc1nc2cnc(-c3ccccc3)cn2n1
II. O=C(Nc1cnc2[nH]cnn2c1=O)c1ccccc1
Enquiry: Compare I and II by numeric inhibition and name the larger one. Mark your answer with the label of the selected entry.
Return: I
(I: 41%, II: 6%)

---

target: MAP3K7 TAB1 (human) (UniProt Q15750+O43318); experiment: radiometric filter-binding kinase assay; details: compound 100.0 µM; ATP 5 µM
Sequence (O43318 whole entry, looked up): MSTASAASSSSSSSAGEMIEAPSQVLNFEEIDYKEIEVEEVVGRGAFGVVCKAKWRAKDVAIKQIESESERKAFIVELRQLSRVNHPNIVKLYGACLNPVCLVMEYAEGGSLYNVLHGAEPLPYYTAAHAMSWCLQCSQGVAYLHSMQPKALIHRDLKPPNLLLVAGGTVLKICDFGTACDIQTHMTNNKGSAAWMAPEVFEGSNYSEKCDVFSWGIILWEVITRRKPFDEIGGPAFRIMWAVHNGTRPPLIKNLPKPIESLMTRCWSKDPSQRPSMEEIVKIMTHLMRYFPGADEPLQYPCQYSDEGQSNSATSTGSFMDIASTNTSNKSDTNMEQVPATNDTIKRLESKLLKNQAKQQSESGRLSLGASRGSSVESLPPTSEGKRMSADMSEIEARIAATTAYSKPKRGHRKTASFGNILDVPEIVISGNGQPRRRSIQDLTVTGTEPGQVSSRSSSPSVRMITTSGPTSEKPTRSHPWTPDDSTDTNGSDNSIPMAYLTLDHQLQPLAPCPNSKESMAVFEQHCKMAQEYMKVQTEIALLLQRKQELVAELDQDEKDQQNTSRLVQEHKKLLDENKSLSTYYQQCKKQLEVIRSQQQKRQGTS
Sequence (Q15750 whole entry, looked up): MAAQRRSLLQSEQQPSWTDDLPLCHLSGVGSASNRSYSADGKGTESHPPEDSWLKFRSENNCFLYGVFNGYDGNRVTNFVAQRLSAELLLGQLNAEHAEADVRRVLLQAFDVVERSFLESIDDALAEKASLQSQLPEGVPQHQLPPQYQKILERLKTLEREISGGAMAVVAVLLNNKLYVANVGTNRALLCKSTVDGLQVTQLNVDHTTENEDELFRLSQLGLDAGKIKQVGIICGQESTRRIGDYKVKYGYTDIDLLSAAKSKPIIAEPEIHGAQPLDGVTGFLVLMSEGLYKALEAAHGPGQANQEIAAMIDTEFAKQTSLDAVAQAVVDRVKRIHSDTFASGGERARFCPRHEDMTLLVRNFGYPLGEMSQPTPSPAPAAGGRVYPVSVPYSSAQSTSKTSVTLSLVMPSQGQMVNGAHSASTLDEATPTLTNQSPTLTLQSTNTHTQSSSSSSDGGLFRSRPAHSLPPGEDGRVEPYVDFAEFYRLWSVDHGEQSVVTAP
TEST_READOUT: inhibition (%)

CC(C)(C)Nc1c(C2CC2)nc2[nH]cnn12 :: 3

I. CC(=O)Nc1nc2cnc(-c3c(C)cccc3C)cn2n1
II. Nc1cnc2c(-c3c(F)cccc3F)cccn2c1=O
III. COc1ccc(NC(=S)Nc2cnc3[nH]cnn3c2=O)cn1
IV. O=c1c(NC(=S)NCc2ccccc2)cnc2[nH]ccn12
V. O=c1cc(-c2ccccc2F)nc2[nH]ccn12
Enquiry: Hello, I need these entries ordered by inhibition, highest reading first. Thanks! Put the labels in the requested order and write them down.
Return: II, V, IV, III, I
(II: 80%, V: 37%, IV: 20%, III: 2%, I: 0%)

---

biological target: STK3 (human) (UniProt Q13188); assay: radiometric filter-binding kinase assay; settings: compound 100.0 µM; ATP 20 µM
Sequence (Q13188 whole entry, looked up): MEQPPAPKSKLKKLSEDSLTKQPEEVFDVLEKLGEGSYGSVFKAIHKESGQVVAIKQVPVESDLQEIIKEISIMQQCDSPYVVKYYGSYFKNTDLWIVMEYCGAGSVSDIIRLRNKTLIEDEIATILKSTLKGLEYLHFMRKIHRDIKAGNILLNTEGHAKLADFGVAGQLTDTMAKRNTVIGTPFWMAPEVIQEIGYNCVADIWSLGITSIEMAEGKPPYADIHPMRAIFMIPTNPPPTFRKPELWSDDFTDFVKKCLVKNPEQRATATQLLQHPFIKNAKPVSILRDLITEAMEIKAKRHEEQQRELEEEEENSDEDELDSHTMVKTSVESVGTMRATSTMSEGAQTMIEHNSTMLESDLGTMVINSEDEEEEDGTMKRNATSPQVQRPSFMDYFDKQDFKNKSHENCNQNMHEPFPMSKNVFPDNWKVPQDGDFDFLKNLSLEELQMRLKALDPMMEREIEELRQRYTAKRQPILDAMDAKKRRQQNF
TEST_READOUT: inhibition (%)

O=c1cc(-c2ccccc2F)nc2[nH]ccn12 :: 27
CC(=O)Nc1nc2cnc(-c3c(C)cccc3C)cn2n1 :: 0

a. COc1ccc(NC(=S)Nc2cnc3[nH]cnn3c2=O)cn1
b. Nc1nc2cnc(-c3ccccc3)cn2n1
c. COc1ccc(-c2cc3c(=O)[nH]cnc3s2)cc1OC
d. O=C(Nc1cnc2[nH]ccn2c1=O)c1ccccc1
Enquiry: Hello, I need these entries ordered by inhibition, highest reading first. Thanks! Put the labels in the requested order and write them down.
Return: d, c, b, a

P. CC(C)(C)Nc1c(COCc2ccccc2)nc2[nH]cnn12
Q. O=C(c1cccc(-c2cc3c(=O)[nH]cnc3s2)c1)N1CCOCC1
Enquiry: Compare P and Q by numeric inhibition and name the larger one. Mark your answer with the label of the selected entry.
Return: Q

1. Nc1cnc2c(-c3c(F)cccc3F)cccn2c1=O
2. O=C(Nc1cnc2[nH]cnn2c1=O)c1ccccc1
Enquiry: Compare 1 and 2 by numeric inhibition and name the larger one. Mark your answer with the label of the selected entry.
Return: 1

P. O=c1c(NC(=S)NCc2ccccc2)cnc2[nH]ccn12
Q. CC1CN(c2nc3ccccn3c(=O)c2N)CC(C)O1 (configuration not stated)
Enquiry: Compare P and Q by numeric inhibition and name the larger one. Mark your answer with the label of the selected entry.
Return: P

The reported measurements were obtained from the kinase profiling compilation of Christmann-Franck et al. (2016).
